# target or test system: T1, Egr^146–409 (extracellular portion of Eiger, His6-tagged) (Drosophila melanogaster, UniProt Q8MUJ1-2 146-409)
# T1 construct: Cloned in a pET43 vector; Trimer by static light scattering; also called Egr/TNF; Egr extracellular domain; source: E. coli SHuffle cells, purified (HiTrap chelating Ni column, Superdex-200 SEC)
# T1 sequence (looked up): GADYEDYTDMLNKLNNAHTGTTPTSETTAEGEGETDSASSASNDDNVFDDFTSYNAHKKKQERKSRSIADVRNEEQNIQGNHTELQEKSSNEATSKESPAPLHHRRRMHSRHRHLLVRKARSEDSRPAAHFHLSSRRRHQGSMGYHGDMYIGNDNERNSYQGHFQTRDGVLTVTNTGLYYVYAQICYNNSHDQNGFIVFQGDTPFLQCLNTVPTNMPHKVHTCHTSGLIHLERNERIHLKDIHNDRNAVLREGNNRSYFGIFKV
# assay details: ITC; MicroCal PEAQ-ITC, 25 °C, 0.02 M Tris-HCl pH 8.0, 0.3 M NaCl; Grnd^30–97 at 100–340 μM titrated into 8 μM Egr^146–409; Wgn^78–201 at 4.5 mM titrated into 410 μM Egr^146–409; single-site fit
# experimental parameters: both partners purified
pKd: −log10 of the molar value.
experimental readout: pKd

# binder, readout value
records = [
    ("Grnd^30–97 (extracellular domain of Grindelwald) (domain or fragment, Drosophila melanogaster, UniProt Q9VJ83 30-97, looked up, Grindelwald (Grnd), Drosophila melanogaster, extracellular domain, residues 30-97; pETM14 vector; His6-tag removed with PreScission protease; Monomer by static light scattering; also called wild-type Grnd^30–97; source: E. coli SHuffle B cells (NEB), purified (Ni HiTrap, PreScission, Resource-Q); not shown: His6, N-terminal, cleaved) GESRDCHGTICHPVNEFCYVATERCHPCIEVCNNQTHNYDAFLCAKECSAYKTFEPLKAEMLDIQNTQ", "~7.52"),
]

These entries and their values trace back to paper PMC8024323.
